Provenance of the data: paper PMC3817407

Molecular target: T1, ECF02_915
T1 chain: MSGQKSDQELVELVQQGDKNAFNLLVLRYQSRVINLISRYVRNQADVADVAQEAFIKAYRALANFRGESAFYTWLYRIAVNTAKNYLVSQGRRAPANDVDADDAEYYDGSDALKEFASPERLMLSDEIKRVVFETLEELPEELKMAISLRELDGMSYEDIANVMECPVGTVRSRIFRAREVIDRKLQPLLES
quantityName: fold repression

# binder, quantityName, experimentalResult
records = [
    ("AS16_3622 (protein) MMKTDELISLLATAEGPVDRHALARRLGLALLAGLLGALLLTVALYGVRSDLAEVARTPLFWAKVALPTSLALLGLWLTQRLARPGVRGGALWGLLGVPLLLVWLGAAISLFGAPPEARADLIFGRTWRTCALNITLLSTPVFIAVFWALRGLAPTRLRQAGAAGGLLAGSTATLVYCLHCPEMGVPFWGLWYLLGMLVPTLLGAVLGPRLLRW", "fold repression", 1.26),
    ("AS16_973 (protein) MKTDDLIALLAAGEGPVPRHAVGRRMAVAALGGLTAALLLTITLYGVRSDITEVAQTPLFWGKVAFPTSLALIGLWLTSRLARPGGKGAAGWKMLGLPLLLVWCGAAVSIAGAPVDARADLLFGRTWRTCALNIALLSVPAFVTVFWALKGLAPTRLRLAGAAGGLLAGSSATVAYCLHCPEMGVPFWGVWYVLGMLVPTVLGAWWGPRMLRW", "fold repression", 0.403),
]
